- Tested on: human liver cancer cell HepG2
- procedure.text: CCK-8 cell proliferation inhibition, HepG2
- Format: cell-based
- measurement.conditions: Homo sapiens, HepG2, 72 h, CCK-8, 72 h; read-out: IC50 HepG2
experimental.readout: pIC50
Here pIC50 is given on a logarithmic scale as minus log10 of the concentration in mol/L.

// known answers, use as guide
[in] Any idea what its pIC50 is? The compound is COc1ccc(CCc2cc(OC)c(OC)c(OC)c2)cc1O [Erianin, reference compound]
[out] 6.63

[in] Any idea what its pIC50 is? The compound is "COc1ccc(CCc2cc(OC)c(OC)c(OC)c2)cc1OS(N)(=O)=O"
[out] 5.94

[in] Any idea what its pIC50 is? The compound is "COc1cc(CCc2ccc(OC(F)F)c(OS(N)(=O)=O)c2)cc(OC)c1OC"
[out] 4.80

[in] Any idea what its pIC50 is? The compound is "COc1cc(CCc2cccc(OS(N)(=O)=O)c2)cc(OC)c1OC"
[out] 4.92

[in] Any idea what its pIC50 is? The compound is COc1ccc(/C=C\c2cc(OC)c(OC)c(OC)c2)cc1O [CA-4, reference compound]
[out] 4.79

[in] Any idea what its pIC50 is? The compound is "CCOc1ccc(/C=C/c2cc(OC)c(OC)c(OC)c2)cc1OS(N)(=O)=O"
[out] 5.58

***
[in] Any idea what its pIC50 is? The compound is "COc1cc(/C=C\c2cccc(OS(N)(=O)=O)c2)cc(OC)c1OC"
[out] 5.03

[in] Any idea what its pIC50 is? The compound is "COc1ccc(/C=C/c2cc(OC)c(OC)c(OC)c2)cc1NS(N)(=O)=O"
[out] 5.12

[in] Any idea what its pIC50 is? The compound is "COc1cc(/C=C/c2cccc(OS(N)(=O)=O)c2)cc(OC)c1OC"
[out] 4.93

[in] Any idea what its pIC50 is? The compound is "CCOc1ccc(/C=C\c2cc(OC)c(OC)c(OC)c2)cc1OS(N)(=O)=O"
[out] 6.38

[in] Any idea what its pIC50 is? The compound is "COc1ccc(/C=C\c2cc(OC)c(OC)c(OC)c2)cc1OS(N)(=O)=O"
[out] 6.47

[in] Any idea what its pIC50 is? The compound is "COc1ccc(/C=C\c2cc(OC)c(OC)c(OC)c2)cc1NS(N)(=O)=O"
[out] 6.12

[in] Any idea what its pIC50 is? The compound is "CCOc1ccc(CCc2cc(OC)c(OC)c(OC)c2)cc1OS(N)(=O)=O"
[out] 5.44

[in] Any idea what its pIC50 is? The compound is "COc1ccc(CCc2cc(OC)c(OC)c(OC)c2)cc1NS(N)(=O)=O"
[out] 5.09

[in] Any idea what its pIC50 is? The compound is "COc1ccc(/C=C/c2cc(OC)c(OC)c(OC)c2)cc1OS(N)(=O)=O"
[out] 6.06

###

- measured.target: Arylsulfatase
- procedure.text: Arylsulfatase activity assay in vitro
- Format: biochemical
- measurement.conditions: p-nitrophenyl sulfate substrate, 405 nm; read-out: IC50 sulfatase
Kindly apply the following: Y if IC50 is less than 6 µM, N in every other case.

[in] Identify whether the molecule COc1ccc(/C=C/c2cc(OC)c(OC)c(OC)c2)cc1OS(N)(=O)=O [Compound A1-2] records IC50 below 6 µM.
[out] N

[in] Identify whether the molecule COc1cc(/C=C\c2ccc(OC(F)F)c(OS(N)(=O)=O)c2)cc(OC)c1OC [Compound A3-1] records IC50 below 6 µM.
[out] Y

[in] Identify whether the molecule COc1cc(/C=C\c2cccc(OS(N)(=O)=O)c2)cc(OC)c1OC [Compound A4-1] records IC50 below 6 µM.
[out] Y

Okay, next one:
[in] Identify whether the molecule C[C@]12CC[C@@H]3c4ccc(OS(N)(=O)=O)cc4CC[C@H]3[C@@H]1CCC2=O [EMATE, reference compound] records IC50 below 6 µM.
[out] Y
